test system: NCI/ADR-RES ovarian; experiment: NCI tumour cell line growth inhibition, 48 h
readout.kind: TGI

Entry under review: O=S(=O)(Nc1nccs1)c1ccc([As](=O)(O)O)cc1 . Reported TGI?
> 100 µM

For NC(CP(=O)(O)O)C(=O)O (stereo not drawn) then?
> 100 µM

For O=C(CN1CCN(CCN2C(=O)c3cccc4cccc(c34)C2=O)CC1)Nc1ccc2ncsc2c1 then?
53.8 µM

---

Give measured TGI for each item. Keep answers brief.
tested on: SR leukemia; assay: NCI tumour cell line growth inhibition, 48 h

Entry under review: O=c1c2ccccc2nc2n1CCc1c-2[nH]c2cc3c(cc12)OCO3 . Reported TGI?
> 25 µM

For COc1cccc(C2c3cc4c(cc3OC(NNC(N)=O)C2C)OCO4)c1O (stereo unspecified) then?
> 19.8 µM

For O=c1ccc2c(Cl)cccc2o1 then?
> 100 µM

For Clc1ccc(OCc2nnc3sc(SSc4nn5c(COc6ccc(Cl)cc6)nnc5s4)nn23)cc1 then?
> 100 µM

For CC(C)(C)CNCCCNc1ccc(Cl)cc1 then?
49.4 µM

For O=C(CC(Cc1ccccc1)c1ccc(Oc2ccccc2)cc1)Nc1cccc(Cl)c1 (stereo unspecified) then?
47.5 µM

For CC(C)=CC1C(COC(=O)c2ccccc2Cl)C1(C)C (stereo unspecified) then?
> 100 µM

For Cc1ccc(NC(=O)CCc2nnc3s/c(=C\c4cccc([N+](=O)[O-])c4)c(=O)n23)cc1 then?
> 100 µM

For O=C1C(Cl)=C(N2CCN(CCOCCO)CC2)C(=O)c2ccccc21 then?
8.51 µM

For CS(=O)(=O)O[C@H]1C(=O)N(c2cc3c4ccccc4ccc3c3ccccc23)[C@@H]1c1ccccn1 then?
> 100 µM

For O=C(NCCCl)NCCN1c2nc3ccccc3cc2Sc2cc3ccccc3nc21 then?
> 23.3 µM

For CC(C)C1CC(CO)(CNc2nc(N)nc(Cl)c2/C=N\O)C1 (stereo unspecified) then?
> 54.2 µM

For COc1ccc(OC)c(N=Cc2cc(OC)c(OC)c(OC)c2)c1 then?
> 100 µM

For CCCCC(O)(c1ccccc1)C(O)(c1ccccc1)c1c(F)c(F)c(F)c(F)c1F (stereo unspecified) then?
76.7 µM

For C1=Nc2ccccc2Cn2nncc21 then?
> 100 µM

For O=C1C=CC(=O)c2c(O)c(NCCO)c(Cl)c(O)c21 then?
> 6.94 µM

---

tested on: MDA-MB-231 breast; assay: NCI tumour cell line growth inhibition, 48 h
readout.kind: TGI

Entry under review: Cc1ccc(NC(=O)CC(=O)N2N=C(N3CCCCC3)CC2c2ccccc2)cc1 (stereo not drawn) . Reported TGI?
> 100 µM

For O=C1NC(=S)N/C1=C\c1ccc(Cl)cc1 then?
> 100 µM

For Cc1ccc(N=NN(C)C(C)C(O)Cc2ccccc2)cc1 (stereo not drawn) then?
> 100 µM

---

Give measured TGI for each item. Keep answers brief.
system: SK-OV-3 ovarian; experiment: NCI tumour cell line growth inhibition, 48 h

Entry under review: CC(C)(C)C(O)CC(O)(C(F)(F)F)C(F)(F)F (stereo not given) . Reported TGI?
> 100 µM

For C[C@@H]1CC[C@H]2[C@@H](C)C(OC/C=C/COC3O[C@@H]4O[C@@]5(C)CC[C@H]6[C@H](C)CC[C@@H]([C@H]3C)[C@@]46OO5)O[C@@H]3O[C@@]4(C)CC[C@@H]1[C@]32OO4 (stereo not given in full) then?
> 100 µM

For Cc1ccccc1C=NC12CC3CC(CC(C3)C1)C2 then?
> 100 µM

For Cc1ccc(/C=C(/C#N)n2nnc3ncccc32)cc1 then?
> 100 µM

For C/C(=N\Nc1nc2ccccc2o1)c1ncccn1 then?
10 µM

For Nc1nc(=S)c2ncn(C3OC(CO)C(O)C3O)c2[nH]1 (stereo not given) then?
7.76 µM

For CC12CC/C(=N/NC(N)=O)C3C1CCCC32 then?
> 100 µM

For C=C1C2C[C@@H]3O[C@H]4C[C@H]5O[C@@]6(C[C@@H]7O[C@]8(C[C@H](C)[C@@H]9O[C@@H]%10CC(C=O)O[C@@H]%10C[C@@H]9O8)C[C@H](C)[C@@H]7O6)C[C@H]5O[C@H]4[C@H](C)[C@H]3OC(=O)C[C@H]3CC[C@@H]4OC5[C@H]6O[C@]7(CC[C@H]8CC(=C)[C@H](CC[C@@H](C[C@H]1C)O2)O8)CC6O[C@@H]5[C@@H](O7)[C@H]4O3 (stereo not given in full) then?
> 1 µM

For O=S(=O)(O)c1ccc(Nc2ccnc3ccccc23)cc1 then?
> 100 µM

For CCOC(=O)c1cc(C2=CCNC2=O)c(-c2cc(C)no2)[nH]1 then?
> 100 µM

Reference source: PubChem BioAssay (NCI)
